B1: LINE1-mini (parent)
chain: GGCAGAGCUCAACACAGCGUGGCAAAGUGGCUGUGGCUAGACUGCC

variants of: B1; experiment: self-cleavage, relative activity (ratio to wild type); higher = more cleavage; in vitro, sequencing; the parent is a self-cleaving ribozyme
Our labelling divides records by self-cleavage into ranges: bin 1 (below 0.06), bin 2 (0.06 to below 0.3), bin 3 (0.3 or more)

Residue Sequence: GGCAGAGCUCAACACAGCGUGGCAAAGUGGCUGUGGCGAGAUUGCC [U38G C42U]
Group: bin 1
//
Residue Sequence: GGCAGAGCUCAACCCAGCGUGGCAAAGUGGCUGUGGCUAGACUGCC [A14C]
Group: bin 2
//
Residue Sequence: GGCAGAGCUCAACACAGUGUGGCAAAGUGGCUUUGGCUAGACUGCC [C18U G33U]
Group: bin 1

Classify this variant: GGCACAGCUCCACACAGCGUGGCAAAGUGGCUGUGGCUAGACUGCC [G5C A11C] bin 1

Repeat for the following variant: GGCAGAGCUCGACACAGCGUGGCAAAGUGGCUGUGGCUAGACCGCC [A11G U43C] bin 1

Repeat for the following variant: GGCAGAGCUCAACACACCGUGGCAAAUUGGCUGUGGCUAGACUGCC [G17C G27U] bin 3

Repeat for the following variant: GGCAGAGCUCAACACAGUGUGGUAAAGUGGCUGUGGCUAGACUGCC [C18U C23U] bin 3

Repeat for the following variant: GGCAGAGGUCAACACAGCGUGGCAAAGUGGCUGUGGCUAGGCUGCC [C8G A41G] bin 2
